# testTarget: T1, recombinant human soluble gpNMB (recombinant human gpNMB-FLAG-His) (human, UniProt Q14956 23-498)
# T1 sequence: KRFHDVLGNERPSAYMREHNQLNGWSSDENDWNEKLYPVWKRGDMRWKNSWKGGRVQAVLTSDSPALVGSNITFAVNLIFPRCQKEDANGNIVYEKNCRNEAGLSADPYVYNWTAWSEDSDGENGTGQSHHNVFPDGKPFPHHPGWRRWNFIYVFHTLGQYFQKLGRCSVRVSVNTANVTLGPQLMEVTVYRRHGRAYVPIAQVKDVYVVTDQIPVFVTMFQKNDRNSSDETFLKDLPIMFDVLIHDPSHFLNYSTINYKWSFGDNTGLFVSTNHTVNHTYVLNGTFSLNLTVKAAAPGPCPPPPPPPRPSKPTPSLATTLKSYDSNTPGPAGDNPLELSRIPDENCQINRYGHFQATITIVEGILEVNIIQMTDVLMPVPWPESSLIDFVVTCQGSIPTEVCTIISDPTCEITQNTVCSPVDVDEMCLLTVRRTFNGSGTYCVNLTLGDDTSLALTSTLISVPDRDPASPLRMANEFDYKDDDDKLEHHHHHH
# measurementDescription: antigen ELISA
pEC50: −log10 of the molar value.
Quick rule: pEC50 of at least 9 means TRUE, below that means FALSE.

The examples below pair each entry with its known result.
binder: hGPN06-1_H1L1 (antibody, V domains shown, humanized; also called humanized anti-gpNMB antibody H1L1) VH: QVQLVQSGAEVKKPGASVKVSCKASGYTFTDNWMGWVKQRPGQGLEWIGAIDPSDSFTNYNQNFKGRVTMTVDTSISTAYMELSRLRSDDSAVYFCTRSGYYGSPKLGGDYWGQGTLVTVSS VL: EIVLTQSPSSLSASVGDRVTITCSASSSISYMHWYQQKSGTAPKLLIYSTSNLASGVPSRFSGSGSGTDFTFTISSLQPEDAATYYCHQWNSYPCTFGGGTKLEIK
labelValue: FALSE

binder: hGPN06-1_H1L1 VH G109A (antibody, V domains shown) VH: QVQLVQSGAEVKKPGASVKVSCKASGYTFTDNWMGWVKQRPGQGLEWIGAIDPSDSFTNYNQNFKGRVTMTVDTSISTAYMELSRLRSDDSAVYFCTRSGYYGSPKLGADYWGQGTLVTVSS VL: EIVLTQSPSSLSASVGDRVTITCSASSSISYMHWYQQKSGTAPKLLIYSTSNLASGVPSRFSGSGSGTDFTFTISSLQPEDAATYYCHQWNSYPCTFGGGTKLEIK
labelValue: FALSE

binder: hGPN06-1_H1L1 VH K106A (antibody, V domains shown) VH: QVQLVQSGAEVKKPGASVKVSCKASGYTFTDNWMGWVKQRPGQGLEWIGAIDPSDSFTNYNQNFKGRVTMTVDTSISTAYMELSRLRSDDSAVYFCTRSGYYGSPALGGDYWGQGTLVTVSS VL: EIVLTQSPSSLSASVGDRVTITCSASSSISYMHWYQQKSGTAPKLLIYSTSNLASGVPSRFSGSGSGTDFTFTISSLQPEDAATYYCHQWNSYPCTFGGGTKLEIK
labelValue: TRUE

binder: hGPN06-1_H1L1 VH R98A (antibody, V domains shown) VH: QVQLVQSGAEVKKPGASVKVSCKASGYTFTDNWMGWVKQRPGQGLEWIGAIDPSDSFTNYNQNFKGRVTMTVDTSISTAYMELSRLRSDDSAVYFCTASGYYGSPKLGGDYWGQGTLVTVSS VL: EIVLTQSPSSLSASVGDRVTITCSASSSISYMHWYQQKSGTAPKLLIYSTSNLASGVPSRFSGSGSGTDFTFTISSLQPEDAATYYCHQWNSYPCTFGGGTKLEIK
labelValue: FALSE

binder: hGPN06-1_H1L1 VH T97A (antibody, V domains shown) VH: QVQLVQSGAEVKKPGASVKVSCKASGYTFTDNWMGWVKQRPGQGLEWIGAIDPSDSFTNYNQNFKGRVTMTVDTSISTAYMELSRLRSDDSAVYFCARSGYYGSPKLGGDYWGQGTLVTVSS VL: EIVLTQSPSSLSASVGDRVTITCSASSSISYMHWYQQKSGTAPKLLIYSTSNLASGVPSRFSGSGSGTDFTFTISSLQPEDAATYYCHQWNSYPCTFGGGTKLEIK
labelValue: TRUE

Input: API: above_or_equal(metric=pEC50, cutoff=9) for item hGPN06-1_H1L1 VH G100A (antibody, V domains shown) VH: QVQLVQSGAEVKKPGASVKVSCKASGYTFTDNWMGWVKQRPGQGLEWIGAIDPSDSFTNYNQNFKGRVTMTVDTSISTAYMELSRLRSDDSAVYFCTRSAYYGSPKLGGDYWGQGTLVTVSS VL: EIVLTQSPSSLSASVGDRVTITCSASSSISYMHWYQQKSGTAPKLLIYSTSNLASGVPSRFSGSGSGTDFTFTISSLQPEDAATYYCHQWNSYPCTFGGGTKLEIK
Output: FALSE
